ASSAY_TARGET: T1, Human soluble IL6-R (human, UniProt P08887 20-358)
T1 construct: Bought soluble receptor; biotinylated in some Alphascreen assays; also called sIL6-R; hIL-6R
T1 sequence (looked up): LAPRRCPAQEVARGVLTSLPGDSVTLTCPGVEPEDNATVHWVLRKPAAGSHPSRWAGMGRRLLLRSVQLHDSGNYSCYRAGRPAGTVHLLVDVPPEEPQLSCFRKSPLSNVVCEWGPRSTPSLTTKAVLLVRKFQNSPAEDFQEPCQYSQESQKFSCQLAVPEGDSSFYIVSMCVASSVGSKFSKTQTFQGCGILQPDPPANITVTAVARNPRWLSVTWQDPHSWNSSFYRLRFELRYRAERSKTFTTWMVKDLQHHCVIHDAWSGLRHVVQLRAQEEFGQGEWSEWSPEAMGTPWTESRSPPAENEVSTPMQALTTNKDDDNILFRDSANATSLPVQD
ASSAY_DETAILS: SPR (Biacore), off-rate
Reported koff values for a set of binders
The answer is to be given in s⁻¹; state only the numeric part.

Recorded results for 2 binders are shown here.
PMP 28 A2 (VHH, also called PMP28A2(t)) VHH: EVQLVESGGGLVQPGGSLRLSCAASGFTFGSYDMSWVRQAPGKGPEWVSAINSGGGSTYYADSVKGRFTISRDNAKNTLYLQMNSLKPEDTAVYYCATDWRYSDYDLPLPPPGDYWGQGTQVTVSS : 0.00124
IL6R06 (VHH, also called PMP32E2; PMP 32 E2) VHH: EVQLVESGGGLVQAGGSLRLSCAASGNIFDDNTMGWTWNRQPPGKQRELVAIIATDGSTNYADSVKGRFTISRDNAKNTVYLQMNSLKPEDTAVYYCNLFSLRLGRDYWGQGTQVTVSS : 0.000886

Give the measured koff of IL6R05 (VHH, also called PMP32E10; PMP 32 E10) VHH: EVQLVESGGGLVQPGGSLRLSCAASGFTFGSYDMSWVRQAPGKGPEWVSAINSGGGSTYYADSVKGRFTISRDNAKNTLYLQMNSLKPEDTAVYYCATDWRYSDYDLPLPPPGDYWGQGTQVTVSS .
0.00127

I am curious: what koff value has been reported for IL6R03 (VHH, also called PMP31A4; PMP 31 A4) VHH: EVQLVESGGGLVQAGGSLRLSCAASGSIFKVNAMGWYRQAPGKQRELVAGIISGGSTNYADSVKGRLTISRDNAKNTVYLQMNSLKPEDTAVYYCSFVTTNSDYDLGRDYWGQGTQVTVSS ?
0.0016

koff lookup needed for PMP 28 C7 (VHH, also called PMP28C7(t)) VHH: EVQLVESGGGLVQPGGSLRLSCAASGFTFGSYDMSWVRQAPGKGPEWVSAINSGGDNTYYADSVKGRFTISRDNAKNTLYLQMNSLKPEDTAVYYCATDWRYSDYDLPLPPPGDYWGQGTQVTVSS , thanks.
0.00131

Would you kindly share the measured koff for PMP 32 H5 (VHH, also called PMP32H5(t)) VHH: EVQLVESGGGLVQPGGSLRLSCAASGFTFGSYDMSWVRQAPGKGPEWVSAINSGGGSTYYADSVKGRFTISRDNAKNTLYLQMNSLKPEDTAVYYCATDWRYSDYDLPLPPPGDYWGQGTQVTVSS ?
0.00128

Name the reported koff value associated with the binder PMP 31 B11 (VHH, also called PMP31B11(t)) VHH: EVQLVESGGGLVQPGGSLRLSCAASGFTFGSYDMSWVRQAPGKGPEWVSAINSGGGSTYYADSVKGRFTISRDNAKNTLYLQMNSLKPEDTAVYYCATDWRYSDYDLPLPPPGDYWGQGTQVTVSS
0.00124

For the binder IL6R09 (VHH, also called PMP34G9; PMP 34 G9) VHH: EVQLVESGGGLVQAGGSLRLSCAASGRTSSSYDMTWYRQVPGKEREFVAVISWSGGSTYYADSVKGRFTISRDNAKNTVYLQMNSLKPEDTAIYYCNAYTGGGDDYWGQGTQVTVSS , what koff is on record?
0.00139
